Recorded values, source patent US9006450B2.

Molecular target: human ACC2 (Homo sapiens)
Construct: made in house; host or cells: insect cells (baculoviral expression system)
Sequence (O00763 129-2458 limits assumed): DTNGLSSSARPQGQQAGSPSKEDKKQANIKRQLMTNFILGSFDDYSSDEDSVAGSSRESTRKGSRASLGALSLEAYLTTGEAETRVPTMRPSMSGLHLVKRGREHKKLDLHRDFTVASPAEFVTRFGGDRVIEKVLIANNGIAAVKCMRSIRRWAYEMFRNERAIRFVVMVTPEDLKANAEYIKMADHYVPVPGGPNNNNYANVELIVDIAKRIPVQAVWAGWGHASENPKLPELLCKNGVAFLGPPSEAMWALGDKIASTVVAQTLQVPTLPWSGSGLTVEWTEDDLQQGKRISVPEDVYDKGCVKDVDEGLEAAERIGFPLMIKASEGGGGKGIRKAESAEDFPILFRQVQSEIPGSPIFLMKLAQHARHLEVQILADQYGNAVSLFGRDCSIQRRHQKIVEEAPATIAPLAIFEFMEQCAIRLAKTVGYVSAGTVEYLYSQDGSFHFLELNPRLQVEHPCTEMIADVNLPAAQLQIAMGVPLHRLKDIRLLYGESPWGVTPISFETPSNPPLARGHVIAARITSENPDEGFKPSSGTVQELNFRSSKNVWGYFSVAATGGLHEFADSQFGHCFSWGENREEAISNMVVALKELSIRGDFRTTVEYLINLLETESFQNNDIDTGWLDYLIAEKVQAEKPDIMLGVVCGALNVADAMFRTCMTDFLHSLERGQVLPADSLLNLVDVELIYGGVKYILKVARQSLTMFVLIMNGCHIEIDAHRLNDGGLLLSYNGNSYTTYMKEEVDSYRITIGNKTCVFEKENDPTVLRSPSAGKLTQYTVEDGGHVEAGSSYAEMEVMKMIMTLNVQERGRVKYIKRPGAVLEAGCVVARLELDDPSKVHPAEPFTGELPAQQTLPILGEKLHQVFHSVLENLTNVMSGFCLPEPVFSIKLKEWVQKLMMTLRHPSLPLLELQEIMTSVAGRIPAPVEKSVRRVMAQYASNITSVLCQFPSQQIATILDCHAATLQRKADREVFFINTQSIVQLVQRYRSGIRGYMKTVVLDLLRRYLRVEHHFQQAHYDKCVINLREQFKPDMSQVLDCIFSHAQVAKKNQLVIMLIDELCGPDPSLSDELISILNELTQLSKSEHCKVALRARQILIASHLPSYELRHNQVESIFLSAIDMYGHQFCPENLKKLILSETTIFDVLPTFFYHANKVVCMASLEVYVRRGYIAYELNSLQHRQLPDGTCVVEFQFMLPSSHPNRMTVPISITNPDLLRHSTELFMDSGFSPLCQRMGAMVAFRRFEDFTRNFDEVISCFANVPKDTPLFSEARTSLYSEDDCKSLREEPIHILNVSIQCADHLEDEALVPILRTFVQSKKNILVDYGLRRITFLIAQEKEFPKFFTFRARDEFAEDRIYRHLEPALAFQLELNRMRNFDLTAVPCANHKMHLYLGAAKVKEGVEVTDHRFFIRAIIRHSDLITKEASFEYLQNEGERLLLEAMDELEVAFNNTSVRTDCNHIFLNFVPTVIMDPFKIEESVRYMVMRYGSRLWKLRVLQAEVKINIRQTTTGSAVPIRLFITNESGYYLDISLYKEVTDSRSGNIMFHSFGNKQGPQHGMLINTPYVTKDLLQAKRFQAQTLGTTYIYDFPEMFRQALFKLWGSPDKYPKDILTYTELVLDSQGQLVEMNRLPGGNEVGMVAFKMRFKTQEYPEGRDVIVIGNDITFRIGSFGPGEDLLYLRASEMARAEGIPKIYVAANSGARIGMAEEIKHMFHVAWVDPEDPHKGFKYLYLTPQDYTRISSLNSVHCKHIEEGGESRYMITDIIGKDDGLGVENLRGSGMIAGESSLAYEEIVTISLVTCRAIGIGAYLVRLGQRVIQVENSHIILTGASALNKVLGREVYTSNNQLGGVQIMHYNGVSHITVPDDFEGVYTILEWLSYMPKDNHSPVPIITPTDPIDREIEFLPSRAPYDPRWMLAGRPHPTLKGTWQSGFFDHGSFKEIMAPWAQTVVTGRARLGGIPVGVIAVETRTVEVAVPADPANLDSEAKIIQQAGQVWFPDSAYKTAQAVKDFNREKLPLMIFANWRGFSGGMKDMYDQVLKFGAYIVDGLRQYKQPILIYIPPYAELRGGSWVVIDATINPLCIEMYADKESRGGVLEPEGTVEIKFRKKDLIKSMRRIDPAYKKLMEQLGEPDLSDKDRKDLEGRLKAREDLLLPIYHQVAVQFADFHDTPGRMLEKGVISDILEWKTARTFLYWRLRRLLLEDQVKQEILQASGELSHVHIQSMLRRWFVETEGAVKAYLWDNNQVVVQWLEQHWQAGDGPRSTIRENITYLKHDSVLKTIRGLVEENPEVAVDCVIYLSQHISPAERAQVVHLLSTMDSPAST
Experiment: ACC2 assay, spectrophotometric 384 well assay (NADH-linked, coupled lactate dehydrogenase/pyruvate kinase)
Format: biochemical
Conditions: ACC2 assay, hACC2 construct lacking 128 N-terminal amino acids, 25° C., 340 nm; read-out: IC50
pIC50: −log10 of the molar value.
observation_type: pIC50

The following compounds have reported results that may help.
> print(dat)
                                   compound  observation.type  readout.number
1  CC(=O)N[C@@H](C)c1ccc(C2CCN(c3nc4ccccc4o3)CC2)cc1             pIC50            5.72
2  CC(=O)N[C@@H](C)c1ccc(C2CCN(c3cc(N4CCC5(CC5)C4)ncn3)CC2)cc1             pIC50            6.49
3  CC(=O)N[C@@H](C)c1ccc(C2CCN(c3cc(NCCC4CC4)ncn3)CC2)cc1             pIC50            5.62
4  COc1ccc(N2CCC(c3ccc([C@H](C)NC(C)=O)cc3)CC2)cc1C1CC1             pIC50            5.40
5  CCCOc1ccc(N2CCC(c3ccc([C@H](C)NC(=O)C4CC4)cc3)CC2)c(F)c1             pIC50            7.00

P: CC(=O)N[C@@H](C)c1ccc(C2CCN(c3cccc(OC(C)c4ccccc4)c3)CC2)cc1 (some centres unmarked)
Q: CC(=O)N[C@@H](C)c1ccc(C2CCN(c3nnc(-c4ccccc4)s3)CC2)cc1
R: CC(=O)N[C@@H](C)c1ccc(C2CCN(c3ccc(OCC(C)C)c(C#N)c3)CC2)cc1
Problem: Rank ascending by pIC50. Answer by listing the labels in the requested order.
Result: R, Q, P
(R: 5.59, Q: 6.48, P: 6.82)
